Can you tell me CC50 for the items I'm about to list?
- METHOD_SUMMARY: Cellular toxicity in uninfected CEM cells, XTT (TC50)
- PROTOCOL_CONDITIONS: human, uninfected CEM cells (lymphocyte derived)
Give bare numbers, in µM.

Previously resolved entries follow.
• Cc1cc(SC2=C(O)C[C@@](CCc3ccsc3)(C(C)C)OC2=O)c(C(C)(C)C)cc1CO = 91
• CC(C)[C@]1(CCc2ccccc2)CC(O)=C(Sc2cc3cc[nH]c3cc2C(C)(C)C)C(=O)O1 = 42

Consider the additional compound presented here.
[ask] Returns the measured CC50 for the input compound. Input: Cc1c(F)cccc1CCC1(C(C)C)CC(O)=C(Sc2cc3sc(N)nc3cc2C(C)(C)C)C(=O)O1 (racemic)
[reply] 93

---

- METHOD_SUMMARY: Rat blood levels after IV dosing
- Type: in vivo
- PROTOCOL_CONDITIONS: plasma, rats, IV dose of 10 mg/kg, read-out: T 1/2 (half life) (converted)
Can you tell me half-life for the items I'm about to list?
One number for each entry, in h.

Previously resolved entries follow.
- Cc1cc(SC2=C(O)C[C@@](CCc3ccsc3)(C(C)C)OC2=O)c(C(C)(C)C)cc1CO: 12
- CC(C)[C@]1(CCc2cccc(F)c2)CC(O)=C(Sc2cc3sc(N)nc3cc2C(C)(C)C)C(=O)O1: 4
- Cc1cc(SC2=C(O)CC(CCc3nccs3)(C(C)C)OC2=O)c(C(C)(C)C)cc1CO (stereo not drawn): 8

Please go through the list and note half-life for each molecule.
1. CC(C)C1(CCc2ccccc2CO)CC(O)=C(Sc2cc3cc[nH]c3cc2C(C)(C)C)C(=O)O1 (racemic)
2. Cc1cc(SC2=C(O)CC(CCc3ccc(N)cc3)(C(C)C)OC2=O)c(C(C)(C)C)cc1CO (stereo not drawn) [Reference Agent 1, reference compound]
3. Cc1cc(SC2=C(O)CC(CCc3ccc(O)cc3)(C(C)C)OC2=O)c(C(C)(C)C)cc1CO (stereo not drawn) [Reference Agent 2, reference compound]

[reply]
[4.5, 3.7, 3.9]

---

- Test system: HIV infected lymphocyte derived CEM cells
- METHOD_SUMMARY: Cellular infection assay in CEM cells, XTT cytopathic procedure (EC50)
- PROTOCOL_CONDITIONS: Human immunodeficiency virus 1, CCRF-CEM, read-out: Antiviral Efficacy EC50
- Protocol: Compound concentrations were 0.32, 1, 3.2, 10, 32, and 100 uM.
Doc: threshold 1 µM (exclusive). Items with EC50 beneath it return True; others return False.

[ask] A record lists CC(C)c1cc2ncsc2cc1SC1=C(O)C[C@@](CCc2ccc(O)cc2)(C(C)C)OC1=O [Example 48] . Is its EC50 below 1 µM?
[reply] True

[ask] A record lists Cc1cc(SC2=C(O)CC(CCc3ccc(CO)s3)(C(C)C)OC2=O)c(C(C)(C)C)cc1O (racemic) [Example 37] . Is its EC50 below 1 µM?
[reply] False

[ask] A record lists Cc1cc(SC2=C(O)CC(CCc3ccc(O)cc3)(C(C)C)OC2=O)c(C(C)(C)C)cc1CO (stereo not drawn) [Reference Agent 2, reference compound] . Is its EC50 below 1 µM?
[reply] True

[ask] A record lists Cc1cc(SC2=C(O)C[C@@](CCc3ccc(O)cc3)(C(C)C)OC2=O)c(C(C)C)c2sc(N)nc12 [Example 18] . Is its EC50 below 1 µM?
[reply] False

[ask] A record lists CC(C)[C@]1(CCc2ccccc2)CC(O)=C(Sc2cc3sc(N)nc3cc2C(C)(C)C)C(=O)O1 [Example 13] . Is its EC50 below 1 µM?
[reply] True

[ask] A record lists CC(C)[C@]1(CCc2ccccc2)CC(O)=C(Sc2cc3cc[nH]c3cc2C(C)(C)C)C(=O)O1 [Example 73] . Is its EC50 below 1 µM?
[reply] True

[ask] A record lists CC(C)c1cc2nc(N)sc2cc1SC1=C(O)C[C@@](CCc2ccccc2)(C(C)C)OC1=O [Example 14] . Is its EC50 below 1 µM?
[reply] False
